- Test system: mice
- Test: Neuropharmacological Assay (SmartCube): automated behavioral signature of compound-treated mice compared with a database of reference drug classes
- Type: in vivo
- Run Conditions: probability that activity matches this class of agents, 3.0 mg/kg i.p., 15 min before test
Structures can show the parent of a compound that is named as a salt.
Property Label: AP

Example compounds with recorded AP:
CCc1sc(CC)c2c1CCC(NC)C2 (single isomer, unassigned) [Compound 118, hydrochloride] ... ND (^ <4%)
CNC1(C)CCc2cscc2C1 (single isomer, unassigned; enantiomer 1) [Compound 101] ... ND (^ <4%)
CNC1CCc2csc(C)c2C1.Cl (single isomer, unassigned) [Compound 41] ... ++ (≥24%)
CNC1CCc2ccsc2C1.Cl (single isomer, unassigned) [Compound 10] ... ++ (≥24%)
c1scc2c1CCC(NC1COC1)C2 (single isomer, unassigned) ... ND (^ <4%)
CNC1CCc2ccsc2C1.Cl (single isomer, unassigned) [Compound 9] ... ++ (≥24%)

Field: AP. Fill in for each record below.
1. CNC1(C)CCc2ccsc2C1 (single isomer, unassigned) [Compound 49, hydrochloride]
2. Cl.c1cc2c(s1)CC(N1CCOCC1)CC2 (single isomer, unassigned) [Compound 23]

Result:
1. ND (^ <4%)
2. ND (^ <4%)
